# TEST_METHOD_NOTES: Toxicity liver stage against HepG2, at 10uM
# Assay type: cell-based
# Parameters: test concentration 10 uM, cell line HepG2-A16-CD81EGFP
# TEST_CONDITIONS: human, HepG2-A16-CD81EGFP cells; read-out: INHIBITION
# cytotoxicity at 10 µM per record follows
Expressed in %, but write only the number.

Previously resolved entries follow.
{"COMPOUND": "CS(=O)(=O)c1ccc(CNC(=O)N2CCC(C(N)=O)CC2)cc1", "cytotoxicity at 10 µM / %": -3.78}
{"COMPOUND": "Cc1noc(C)c1CC(=O)NCc1ccnc(OCC(F)(F)F)c1", "cytotoxicity at 10 µM / %": -7.83}
{"COMPOUND": "COc1ccc(CC2(CO)CCN(c3cc(C(N)=O)ccn3)CC2)cc1", "cytotoxicity at 10 µM / %": -2.41}

Request: Supply reported cytotoxicity at 10 µM belonging to this compound: Cc1nn(-c2ccccc2)c2c1C(c1ccc(C(=O)O)cc1)CC(=O)N2 (centres undefined)
Result: 10.6
